These entries and their values trace back to patent US8802664B2.

melting point overview
Structures can show the parent of a compound that is named as a salt.

# compound, unit name, melting point
data = [
    ("CCOc1cccc(C(NC2CCN(C)CC2)c2nc3ccccc3[nH]2)c1 (stereo not shown)", "°C", 74),
    ("CN1CCC(NC(c2cccc(F)c2)c2nc3ccccc3[nH]2)CC1 (stereo not shown) (as salt: oxalate)", "°C", 155),
    ("CSc1ccc(O)c(C(OC2CCN(C)CC2)c2nc3ccccc3[nH]2)c1 (stereo not shown)", "°C", 138),
    ("COc1cccc(COc2cccc(C(NC3CCN(C)CC3)c3nc4ccccc4[nH]3)c2)c1 (stereo not shown) (as salt: oxalate)", "°C", 135),
    ("CN1CCC(NC(c2cccc(OCCOc3ccccc3)c2)c2nc3ccccc3[nH]2)CC1 (stereo not shown) (as salt: oxalate)", "°C", 140),
    ("Cc1cc(C(NC2CCN(C)CC2)c2nc3ccccc3s2)ccc1F (stereo not shown) (as salt: oxalate)", "°C", 160),
    ("CC(=O)OC1CCN(c2cccc(C(OC3CCN(C)CC3)c3nc4ccccc4s3)c2)CC1 (stereo not shown) (as salt: oxalate)", "°C", 74),
]

---

Ki or IC50 activity class for assorted compounds
Target: human H4 receptor (Homo sapiens)
Construct: expressed in transfected cells
Assay: [3H]Histamine binding on membranes of CHO cells stably expressing human H4 receptor
metric: Ki or IC50 activity class

# compound, reading
measured = [
    ("CC(=O)COCC#Cc1cccc(C(OC2CCN(C)CC2)c2nc3ccccc3s2)c1 (centres unmarked) [Example 275]", "< 300 nM"),
    ("Cc1ccc(C(OC2CCN(C)CC2)c2nc3ccccc3[nH]2)c(C)c1 (centres unmarked) [Example 541]", "< 30 nM"),
    ("CN1CCC(OC(c2cccc(CCCCCCNC(=N)NC(=O)OC(C)(C)C)c2)c2nc3ccccc3[nH]2)CC1 (centres unmarked) [Example 364]", "< 1000 nM"),
    ("CN1CCC(OC(c2cccc(Oc3cccnc3)c2)c2nc3ccccc3s2)CC1 (centres unmarked) [Example 448]", "< 300 nM"),
    ("CN1CCC(OC(c2nc3ccccc3s2)c2ccccc2F)CC1 (centres unmarked) [Example 6]", "< 300 nM"),
    ("CN1CCC(COC(c2cccc(Br)c2)c2nc3cc(F)ccc3[nH]2)C1 (centres unmarked) [Example 449]", "< 30 nM"),
    ("CN1CCC(OC(c2cccc(OC3CC4CNCC4C3)c2)c2nc3ccccc3s2)CC1 (centres unmarked) [Example 466]", "< 30 nM"),
    ("CN1CCC(OC(c2cccc(C#CCN)c2)c2nc3ccccc3[nH]2)CC1 (centres unmarked) [Example 194]", "< 300 nM"),
]

---

Target: human H4 receptor (Homo sapiens)
Construct: expressed in transfected cells
Test: [3H]Histamine binding on membranes of CHO cells stably expressing human H4 receptor
Listed here are molecules together with their documented Ki or IC50 activity class.
metric: Ki or IC50 activity class

# molecule, reading
measured = [
    ("CN1CCC(OC(c2cccc(C=CCNC(=N)N)c2)c2nc3ccccc3[nH]2)CC1 (stereo not drawn)", "< 0.03 µM"),
    ("CN1CCC(OC(c2cccc(-c3ccccc3F)c2)c2nc3ccccc3[nH]2)CC1 (stereo not drawn)", "< 0.3 µM"),
    ("CN1CCC(OC(c2cccc(-c3ccc(F)cc3)c2)c2nc3ccccc3s2)CC1 (stereo not drawn)", "< 0.3 µM"),
    ("Cc1cc(O)c(C(OC2CCN(C)CC2)c2nc3ccccc3[nH]2)cc1F (stereo not drawn)", "< 0.03 µM"),
    ("CN1CCC(OC(c2cccc(CCCCN)c2)c2nc3ccccc3[nH]2)CC1 (stereo not drawn)", "< 0.3 µM"),
    ("CN1CCC(OC(c2cccc(-c3ccccc3)c2)c2nc3ccccc3s2)CC1 (stereo not drawn)", "< 0.3 µM"),
    ("CCCOc1ccc(O)c(C(OC2CCN(C)CC2)c2nc3ccccc3[nH]2)c1 (stereo not drawn)", "< 0.3 µM"),
    ("CN1CCC(OC(c2cccc(SCCNc3c(N)c(=O)c3=O)c2)c2nc3ccccc3[nH]2)CC1 (stereo not drawn)", "< 0.3 µM"),
    ("Cc1ccc(C(OC2CCN(C)CC2)c2nc3cc(F)ccc3[nH]2)c(F)c1 (stereo not drawn)", "< 0.03 µM"),
    ("CN1CCC(OC(c2cccc(-c3ccccc3F)c2)c2nc3ccccc3s2)CC1 (stereo not drawn)", "< 0.3 µM"),
    ("CN1CCC(OC(c2cccc(OC3CCNC3)c2)c2nc3ccccc3[nH]2)CC1 (stereo not drawn)", "< 0.3 µM"),
    ("CN1CCC(OC(c2ccc(O)cc2)c2nc3ccccc3[nH]2)CC1 (stereo not drawn)", "< 1 µM"),
    ("Cc1ccc(C(OC2CCN(C)CC2)c2nc3ccccc3[nH]2)cc1Br (stereo not drawn)", "< 0.3 µM"),
    ("CN1CCC(OC(c2cccc(C#CCCCN)c2)c2nc3ccccc3[nH]2)CC1 (stereo not drawn) [Example 294]", "< 0.03 µM"),
    ("CN1CCC(OC(c2ccccc2)c2nc3ccccc3[nH]2)CC1 (stereo not drawn)", "< 0.3 µM"),
    ("CN1CCC(OC(c2cccc(SCC3=NCCN3)c2)c2nc3cc(F)ccc3[nH]2)CC1 (stereo not drawn)", "< 1 µM"),
    ("CN1CCC(OC(c2cccc(C#CCCCn3nccn3)c2)c2nc3ccccc3[nH]2)CC1 (stereo not drawn)", "< 0.3 µM"),
    ("COc1ccccc1-c1cccc(C(OC2CCN(C)CC2)c2nc3ccccc3s2)c1 (stereo not drawn)", "< 0.3 µM"),
]

---

Target: human H4 receptor (Homo sapiens, UniProt Q9H3N8)
Construct: expressed in transfected cells
Sequence (Q9H3N8 whole entry): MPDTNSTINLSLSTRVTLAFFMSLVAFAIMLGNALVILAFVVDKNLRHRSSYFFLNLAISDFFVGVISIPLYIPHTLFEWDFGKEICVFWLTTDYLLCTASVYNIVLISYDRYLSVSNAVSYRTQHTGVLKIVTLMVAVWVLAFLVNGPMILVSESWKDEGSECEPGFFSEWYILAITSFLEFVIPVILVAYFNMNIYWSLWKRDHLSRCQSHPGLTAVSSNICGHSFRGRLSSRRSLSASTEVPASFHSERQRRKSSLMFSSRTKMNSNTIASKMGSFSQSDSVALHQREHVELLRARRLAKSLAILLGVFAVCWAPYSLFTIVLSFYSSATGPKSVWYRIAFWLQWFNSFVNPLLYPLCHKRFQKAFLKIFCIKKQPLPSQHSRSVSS
Test: [3H]Histamine binding on membranes of CHO cells stably expressing human H4 receptor
Listing: Ki or IC50 activity class of selected molecules

# molecule, Ki or IC50 activity class
rows = [
    ("COc1ccc(F)c(C(OCC2CCN(C)C2)c2nc3ccccc3[nH]2)c1 (centres unmarked)", "< 30 nM"),
    ("C#Cc1cccc(C(OC2CCN(C)CC2)c2nc3ccccc3[nH]2)c1 (centres unmarked)", "< 300 nM"),
    ("CN1CCC(OC(c2cccc(SCCCO)c2)c2nc3ccccc3s2)CC1 (centres unmarked)", "< 30 nM"),
    ("CN1CCC(OC(c2cccc(SCCNC(=N)NC#N)c2)c2nc3ccccc3[nH]2)CC1 (centres unmarked)", "< 30 nM"),
    ("Cc1ccc(C(OC2CCN(C)CC2)c2nc3ccccc3[nH]2)c(F)c1 (single isomer, unassigned) [Example 533]", "< 30 nM"),
    ("CN1CCC(OC(c2nc3ccccc3s2)c2c(F)cc(Cl)cc2F)CC1 (centres unmarked)", "< 300 nM"),
    ("COC(=O)CC1(CSc2cccc(C(OC3CCN(C)CC3)c3nc4ccccc4s3)c2)CC1 (centres unmarked)", "< 1000 nM"),
    ("CN1CCC(OC(c2cccc(C#CCCCn3ccnc3)c2)c2nc3ccccc3[nH]2)CC1 (centres unmarked)", "< 300 nM"),
]

---

Structures can show the parent of a compound that is named as a salt.
metric: melting point (°C)

# compound, metric, reading
data = [
    ("CN1CCC(OC(c2cccc(-c3ccc(NC(=O)OC(C)(C)C)cc3)c2)c2nc3ccccc3[nH]2)CC1 (centres unmarked)", "melting point", 135),
    ("Cc1cc(O)c(C(OC2CCN(C)CC2)c2nc3ccccc3[nH]2)c(F)c1 (centres unmarked)", "melting point", 136),
    ("Cc1c(F)ccc(C(OC2CCN(C)CC2)c2nc3ccccc3[nH]2)c1O (centres unmarked)", "melting point", 97),
    ("CCCCCOc1cccc(C(NC2CCN(C)CC2)c2nc3ccccc3[nH]2)c1 (centres unmarked) (as salt: oxalate)", "melting point", 128),
    ("CN1CCC(OC(c2nc3ccccc3[nH]2)c2cc(O)ccc2O)CC1 (centres unmarked)", "melting point", 189),
    ("CN1CCC(OC(c2cccc(SCCCCO)c2)c2nc3cc(F)ccc3[nH]2)CC1 (centres unmarked)", "melting point", 85),
    ("CN1CCC(OC(c2nc3ccccc3[nH]2)c2ccccc2OC(F)(F)F)CC1 (centres unmarked)", "melting point", 193),
    ("CN1CCC(OC(c2cccc(-c3ccccc3Cl)c2)c2nc3ccccc3[nH]2)CC1 (centres unmarked) (as salt: oxalate)", "melting point", 130),
]

---

Where a name gives a salt, the structure may show the parent alone.
metric: melting point (°C)

# compound, unit name, reading
measured = [
    ("Cc1ccc(C(OC2CCN(C)CC2)c2nc3cc(F)ccc3[nH]2)c(F)c1 (stereo not shown)", "°C", 90),
    ("CCSc1ccc(O)c(C(OC2CCN(C)CC2)c2nc3ccccc3[nH]2)c1 (stereo not shown)", "°C", 116),
    ("CN1CCC(OC(c2cccc(OCCCCCN3CCN(C(=O)OC(C)(C)C)CC3)c2)c2nc3ccccc3[nH]2)CC1 (stereo not shown) (as salt: oxalate)", "°C", 101),
    ("CN1CCC(OC(c2cccc(SCCCCN)c2)c2nc3cc(F)c(F)cc3[nH]2)CC1 (stereo not shown) (as salt: oxalate)", "°C", 180),
]
